# selectivity ratio at 120 h values compiled below
method: Therapeutic index, ratio of CC50 for cytotoxicity against human HepDES19 cells assessed as reduction in cell viability measured after 5 days by CCK-8 assay to IC50 for antiviral activity against HBV infected in human HepDES19 cells assessed as reduction in HBV cccDNA production by measuring inhibition of HBeAg secretion incubated for 5 days by ELISA
Format: toxicity, cell-based
run-parameters: time 5 day, read-out: Ratio CC50/IC50

Reference set, count: 4
{"chemical-structure": "O=C(Nc1ccc2c(=O)c3ccccc3oc2c1)c1ccccc1F", "selectivity ratio at 120 h": "> 13"}
{"chemical-structure": "CN(C(=O)c1ccncc1)c1ccc2c(=O)c3cccc(F)c3oc2c1", "selectivity ratio at 120 h": "> 5"}
{"chemical-structure": "O=C(Nc1ccc2c(=O)c3cccc(Cl)c3oc2c1)c1ccccc1[N+](=O)[O-]", "selectivity ratio at 120 h": "> 9"}
{"chemical-structure": "COc1ccccc1C(=O)Nc1ccc2c(=O)c3cccc(F)c3oc2c1", "selectivity ratio at 120 h": "> 1"}

[ask] Please give the measured selectivity ratio at 120 h for this compound: "O=C(Nc1ccc2c(=O)c3cccc(F)c3oc2c1)c1ccccc1F"
[reply] > 141

[ask] Please give the measured selectivity ratio at 120 h for this compound: "Cn1ccnc1C(=O)Nc1ccc2c(=O)c3cccc(F)c3oc2c1"
[reply] > 102

* * *

method: Dose normalized AUC (0 to 24 hrs) in C3H/J mouse at 5 mg/kg, po by LC-MS/MS analysis
Format: ADME, organism-based
run-parameters: in vivo
quantity-measured: AUC/dose

[ask] Please give the measured AUC/dose for this molecule: O=C(O)C1CCN(c2ccc3c(=O)c4cccc(Cl)c4oc3c2)C1 (racemic)
[reply] 171 (ng·h/mL)/(mg/kg)

* * *

method: Oral bioavailability in C57BL/6 mouse at 5 mg/kg by LC-MS/MS analysis
Format: ADME, organism-based
run-parameters: in vivo
quantity-measured: bioavailability
Returns: string containing the numeric result and its unit.

[ask] Please give the measured bioavailability for this compound: O=C(O)C1CCN(c2ccc3c(=O)c4cccc(Cl)c4oc3c2)C1 (racemic)
[reply] 56%

* * *

method: Metabolic stability in mouse hepatocytes assessed as intrinsic clearance
Type: ADME, cell-based, Hepatocyte
run-parameters: read-out: CLH
# CLint scaled values compiled below
Please state the figure in mL/min/kg; there is no need to write the unit.

Reference set, count: 2
{"compound": "O=C(O)C1CCN(c2ccc3c(=O)c4c(Cl)ccc(Cl)c4oc3c2)C1 (configuration not stated)", "CLint scaled (mL/min/kg)": 34.8}
{"compound": "O=C(O)[C@@H]1CCN(c2ccc3c(=O)c4cccc(Cl)c4oc3c2)C1", "CLint scaled (mL/min/kg)": 51.9}

Shifting focus to the compound that follows.
[ask] Please give the measured CLint scaled for this compound: O=C(O)C1CCN(c2ccc3c(=O)c4cccc(Cl)c4oc3c2)C1 (racemic)
[reply] 32.3

* * *

method: Tmax in C3H/J mouse at 100 mg/kg, po by LC-MS/MS analysis
Assay type: ADME, organism-based
run-parameters: in vivo
quantity-measured: Tmax (min)
Please state the figure in min; there is no need to write the unit.

[ask] Please give the measured Tmax for this compound: "O=C(O)[C@@H]1CCN(c2ccc3c(=O)c4cccc(Cl)c4oc3c2)C1"
[reply] 30

* * *

method: Half life in C3H/J mouse at 100 mg/kg, po by LC-MS/MS analysis
Type: ADME, organism-based
run-parameters: in vivo
quantity-measured: half-life (h)
Please state the figure in h; there is no need to write the unit.

[ask] Please give the measured half-life for this molecule: "O=C(O)[C@@H]1CCN(c2ccc3c(=O)c4cccc(Cl)c4oc3c2)C1"
[reply] 1.82
